target: hM5 (Homo sapiens); construct: expressed in transfected cells; test: Calcium mobilization concentration-response (IC50 vs EC80 acetylcholine), CHO hM5; format: cell-based; conditions: CELL LINE hM5; vs EC80 acetylcholine; read-out: IC50
quantity.name: log10(IC50) (log10 of the value in nM)
Friendly reminder: values = log10 of IC50, unit nM.

Worked set:
{"columns": ["molecule", "log10(IC50)"],
 "data": [
  ["CO[C@@H]1CN(S(=O)(=O)c2cnn3c2OCCC3)CC[C@H]1c1cn2ncnc2cc1C (racemic)", 3.16],
  ["Cc1cc(F)c(F)cc1C1=CCN(S(=O)(=O)c2cnn(C)c2C)CC1", 3.19],
  ["COc1c(S(=O)(=O)N2CCC(c3cn4ncnc4cc3C(F)(F)F)CC2)cnn1C", 1.83],
  ["Cn1ncc(S(=O)(=O)N2CC=C(c3c4ccccc4nn3C)CC2)c1C#N", 3.86],
  ["Cc1cc2ncnn2cc1C1(F)CCN(S(=O)(=O)c2cnn3c2CCC3)CC1", 1.59]
]}

# query: log10(IC50) of entry Cc1ncc(S(=O)(=O)N2CCC(c3cc(F)c4ncnn4c3)CC2)n1C
3.62

Which value of log10(IC50) has been reported for Cc1nc2n(c1C1CCN(S(=O)(=O)c3cnn(C)c3Cl)CC1)CCCC2 in the records?
2.40

---

target: hM5 (Homo sapiens, UniProt P08912); construct: expressed in transfected cells; assay: Calcium mobilization concentration-response (IC50 vs EC80 acetylcholine), CHO hM5; format: cell-based; conditions: CELL LINE hM5; vs EC80 acetylcholine; read-out: IC50
Sequence (P08912 whole entry): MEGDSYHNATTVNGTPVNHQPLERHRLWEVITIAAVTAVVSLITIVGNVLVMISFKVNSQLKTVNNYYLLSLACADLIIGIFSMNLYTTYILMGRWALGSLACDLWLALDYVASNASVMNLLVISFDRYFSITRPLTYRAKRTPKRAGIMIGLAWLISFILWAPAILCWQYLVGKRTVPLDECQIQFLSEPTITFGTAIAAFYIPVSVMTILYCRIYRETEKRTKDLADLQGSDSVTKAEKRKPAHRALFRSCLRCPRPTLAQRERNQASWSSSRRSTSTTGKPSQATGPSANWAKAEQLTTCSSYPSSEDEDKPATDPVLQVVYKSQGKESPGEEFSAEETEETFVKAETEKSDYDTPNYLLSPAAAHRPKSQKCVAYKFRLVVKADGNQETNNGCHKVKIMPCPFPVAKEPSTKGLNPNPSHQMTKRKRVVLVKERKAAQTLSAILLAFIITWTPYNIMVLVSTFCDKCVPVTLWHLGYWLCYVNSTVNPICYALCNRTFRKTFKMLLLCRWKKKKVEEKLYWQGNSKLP
Threshold 300 nM. IC50 below it: Y. IC50 at it or above: N.

{"columns": ["molecule", "qualitative.label"],
 "data": [
  ["[2H]C1([2H])CC(c2cn3ncnc3cc2F)CC([2H])([2H])N1S(=O)(=O)c1cnn2c1CCC2 [Compound 478]", "Y"],
  ["Cn1cc(S(=O)(=O)N2CCC(c3cn4ncnc4cc3F)CC2)nn1 [Compound 571]", "N"],
  ["Cc1ncc(S(=O)(=O)N2CCC(c3cnc(C(F)(F)F)cc3C)CC2)s1 [Compound 397]", "N"],
  ["Cc1ncc(S(=O)(=O)N2CCC(c3cn4ncnc4c(F)c3C)CC2)o1 [Compound 486]", "N"]
]}

# TODO verify IC50 < 300 nM strictly for this molecule: Cc1cc2ncccc2cc1C1CCN(S(=O)(=O)c2cnn3cccnc23)CC1 [Compound 448]
N

Below 300 nM on IC50? Entry CO[C@@H]1CN(S(=O)(=O)c2cnn(C)c2Cl)CC[C@H]1c1cn2ncnc2cc1C (racemic) [Compound 413]
Y

Dear reviewer, please state whether Cc1cc(S(=O)(=O)N2CCC(F)(c3cn4ncnc4cc3C)CC2)sn1 [Compound 561] has IC50 strictly beneath 300 nM.
Y

State whether 300 nM exceeds IC50 recorded for COc1c(S(=O)(=O)N2CCC(c3cn4ncnc4cc3C)CC2)cnn1C [Compound 573] .
Y

Does the reported IC50 of Cn1ncc(S(=O)(=O)N2CCC(c3c(C(F)(F)F)nc4n3CCCC4)CC2)c1Cl [Compound 555] stay below 300 nM?
N

Strictly below 300 nM in IC50? O=S(=O)(c1cnn2ccccc12)N1CCC(c2cn3ncnc3cc2C(F)F)CC1 [Compound 510]
Y

Quick check: IC50 of O=S(=O)(c1cnn2ccccc12)N1CCC(c2cn3ncnc3cc2C(F)(F)F)CC1 [Compound 511] under 300 nM?
Y

Decide: IC50 of Cc1nc2n(c1C1CCN(S(=O)(=O)c3cnn(C)c3C(F)F)CC1)CCCC2 [Compound 465] strictly below 300 nM?
N

Is it true that IC50 reported for [2H]C1([2H])CC(c2cn3ncnc3cc2F)CC([2H])([2H])N1S(=O)(=O)c1cnn(C)c1C(F)F [Compound 476] is less than 300 nM?
Y

Is the reported IC50 for [2H]C1([2H])CC(c2cn3ncnc3cc2Cl)CC([2H])([2H])N1S(=O)(=O)c1cn(C)nn1 [Compound 579] strictly below 300 nM?
Y

Given Cc1cnccc1C1CCN(S(=O)(=O)c2cnn(C)c2Cl)CC1 [Compound 429] , is recorded IC50 strictly lower than 300 nM?
N

Lab log: compare recorded IC50 with 300 nM; is it strictly lower for CCc1cc2ncnn2cc1C1CCN(S(=O)(=O)c2cnc(C)o2)CC1 [Compound 496] ?
N
